Test system: TK-10 renal
protocol text: NCI tumour cell line growth inhibition, 48 h
Measured TGI of individual entries

[
  {
    "molecule": "C[C@@H](NC1CCC[C@@H]1O)c1ccccc1 (stereo partly drawn)",
    "TGI": "> 100 µM"
  },
  {
    "molecule": "CN[C@@H](C)[C@H](OP(=O)(O)OC1[C@@H](O)[C@H](O)C(O)[C@H](O)[C@@H]1O)c1ccccc1 (stereo partly drawn)",
    "TGI": "> 100 µM"
  }
]

Value of measured TGI for the entry NCCCc1c(-c2ccccc2)nc(N)[nH]c1=O : > 100 µM

* * *

Measured TGI of individual entries
System: KM20L2 colon
protocol text: NCI tumour cell line growth inhibition, 48 h
Write the number in µM without appending the unit.

[
  {
    "compound": "CC(=O)O[C@H]1CCC2[C@@H]3CCC4Nc5c(cnn5-c5ccccc5)C[C@]4(C)C3CC[C@@]21C (stereo not given in full)",
    "TGI (µM)": 37.1
  }
]

# evaluate next
Value of measured TGI for the entry O=C1C=C(N2CC2)C(=O)C=C1N1CC1 : 1.74

* * *

Measured TGI of individual entries
System: ACHN renal
protocol text: NCI tumour cell line growth inhibition, 48 h

See these solved cases before continuing.
[
  {
    "compound": "CC(=O)N1N=C(N)CC1=O",
    "system under test": "ACHN renal",
    "readout label": "TGI",
    "result value": "> 100 µM"
  },
  {
    "compound": "Cc1ccc(Nc2nc(=O)[nH]c(=O)[nH]2)cc1N=[N+]=[N-]",
    "system under test": "ACHN renal",
    "readout label": "TGI",
    "result value": "> 100 µM"
  },
  {
    "compound": "N=C1C(c2nc3ccccc3s2)=C(O)CN1c1ccc(Cl)cc1Cl",
    "system under test": "ACHN renal",
    "readout label": "TGI",
    "result value": "28.8 µM"
  },
  {
    "compound": "COc1cc(/C=C/C(=O)N[C@@H]2C(=O)N3[C@@H]2SC(C)(C)[C@@H]3C(=O)O)cc(OC)c1OC",
    "system under test": "ACHN renal",
    "readout label": "TGI",
    "result value": "> 100 µM"
  },
  {
    "compound": "C/C(=N\\O)c1cccc(Nc2nc3ccccc3c3occc23)c1",
    "system under test": "ACHN renal",
    "readout label": "TGI",
    "result value": "22.8 µM"
  },
  {
    "compound": "O=c1c(O)c(-c2cc(O)c(O)cc2O)oc2cc(O)c(C3OC(CO)C(O)C(O)C3O)c(O)c12 (configuration not stated)",
    "system under test": "ACHN renal",
    "readout label": "TGI",
    "result value": "> 100 µM"
  }
]

Value of measured TGI for the entry CC(=O)Nc1ccc2oc(=O)c3ccccc3c2c1 : > 100 µM

* * *

Measured GI50 of individual entries
Tested on: SN12C renal
protocol text: NCI tumour cell line growth inhibition, 48 h

[
  {
    "compound": "CC1(C)CCC2(C(=O)O)CC[C@]3(C)C(=CCC4C5(C)CC[C@H](OC6OC(C(=O)O)C(O)C(OC7OC(CO)C(O)C(O)C7O)C6OC6OC(CO)C(O)C(O)C6O)C(C)(C)C5CCC43C)C2C1 (some centres not stated)",
    "system under test": "SN12C renal",
    "GI50": "84 µM"
  }
]

Value of measured GI50 for the entry O=C1/C(=C/c2ccccc2)CN(CCC(=O)N2C/C(=C\c3ccccc3)C(=O)/C(=C/c3ccccc3)C2)C/C1=C\c1ccccc1 : 17.3 µM

Value of measured GI50 for the entry CCC(c1ccc(OC)cc1)C(CC)c1ccc(O)c(CN2CCCC2)c1 (configuration not stated) : 5.61 µM

Value of measured GI50 for the entry O=C1/C=C/[C@@H](O)[C@@H]2C[C@@H](O)C[C@H]2/C=C/CCC[C@H](CO)O1 : 4.24 µM

Value of measured GI50 for the entry COc1cc2c(=O)n(CCCn3ccnc3)c3c4cc5c(cc4ccc3c2cc1OC)OCO5 : 0.635 µM

Value of measured GI50 for the entry O=C(Nc1ccc(Cl)cc1)c1cc2cc(F)ccc2cc1O : 1.78 µM

Value of measured GI50 for the entry O=C(O[C@H]1CN[C@H](C#Cc2cc3ncnc(Nc4ccc(OCc5cccc(F)c5)c(Cl)c4)c3s2)C1)N1CCOCC1 : 5.66 µM
